# EXPERIMENTAL_TARGET: UniProt O14684
# TEST_PROTOCOL: A549 cell-based assay (PGE2 formation, IL-1β stimulated, 50% human serum)
# ASSAY_SETUP: A549 cells, IL-1β 5 ng/ml, read-out: mPGES-1 inhibitory effect in the cell assay, IC50
pIC50: −log10 of the molar value.
READOUT_NAME: pIC50

// known answers, use as guide
Cn1c(Nc2c(Cl)ccc(CNC(=O)C(C)(C)C)c2Cl)nc2cc(C(=O)Nc3cccc(Cl)c3F)c(OCC(F)F)cc21; 9.00
Cn1c(Nc2c(Cl)ccc(CNC(=O)c3cc(C(F)(F)F)n[nH]3)c2Cl)nc2cc(C(=O)Nc3ccc(F)c(Cl)c3)c(OCC(F)F)cc21; 7.77

[P] Cn1c(Nc2c(Cl)ccc(CNC(=O)OC(C)(C)C)c2Cl)nc2cc(C(=O)NCC(F)(F)F)c(OCC(F)F)cc21
[Q] COCC(=O)NCc1ccc(Cl)c(Nc2nc3cc(C(=O)NCC(F)(F)F)c(OCC(F)F)cc3n2C)c1Cl
*Q* Would you let me know which has the greater pIC50 value, P or Q ? Your answer should be the label of the entry you select.
*A* Q
(Q: 7.96, P: 6.97)

[P] Cn1cccc1C(=O)NCc1ccc(Cl)c(Nc2nc3cc(C(=O)Nc4ccc(F)c(Cl)c4)c(OCC(F)F)cc3n2C)c1Cl
[Q] Cn1c(Nc2c(Cl)ccc(CNC(=O)CO)c2Cl)nc2cc(C(=O)Nc3ccc(F)c(Cl)c3)c(OCC(F)F)cc21
*Q* Would you let me know which has the greater pIC50 value, P or Q ? Your answer should be the label of the entry you select.
*A* P

[a] Cn1c(Nc2c(Cl)ccc(CNC(=O)C3CC(F)(F)C3)c2Cl)nc2cc(C(=O)NCC(F)(F)F)c(OCC(F)F)cc21
[b] Cn1c(Nc2c(Cl)ccc(CNC(=O)C(C)(C)C)c2Cl)nc2cc(C(=O)NC3CCC3)c(OCC(F)F)cc21
*Q* Would you let me know which has the greater pIC50 value, a or b ? Your answer should be the label of the entry you select.
*A* b
(b: 9.00, a: 7.82)

* * *

# EXPERIMENTAL_TARGET: mPGES-1 (Homo sapiens (Human), UniProt O14684)
# Sequence (O14684 whole entry): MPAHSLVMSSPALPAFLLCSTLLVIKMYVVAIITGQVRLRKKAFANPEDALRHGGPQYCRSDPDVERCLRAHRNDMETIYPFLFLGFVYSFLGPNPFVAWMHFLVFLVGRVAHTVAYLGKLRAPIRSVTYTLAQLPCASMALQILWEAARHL
# TEST_PROTOCOL: A549 cell-based assay (PGE2 formation, IL-1β stimulated, 50% human serum)
# ASSAY_SETUP: A549 cells, IL-1β 5 ng/ml, read-out: mPGES-1 inhibitory effect in the cell assay, IC50
READOUT_NAME: IC50 (nM)

Cn1c(Nc2c(Cl)ccc(CNC(=O)OC(C)(C)C)c2Cl)nc2cc(C(=O)N[C@H]3CC[C@H](C(F)(F)F)CC3)c(OCC(F)F)cc21; 28
Cn1c(Nc2c(Cl)ccc(CNC(=O)C(C)(C)C)c2Cl)nc2cc(C(=O)Nc3ccc(Br)cc3)c(F)cc21; 1
Cn1c(Nc2c(Cl)ccc(CNC(=O)C3CC3)c2Cl)nc2cc(C(=O)NCC(F)(F)F)c(OCC(F)F)cc21; 52
Cn1c(Nc2c(Cl)ccc(CNC(=O)C(C)(C)C)c2Cl)nc2cc(C(=O)Nc3cccc(C#N)c3)c(OCC(F)F)cc21; 1
Cn1c(Nc2c(Cl)ccc(CNC(=O)C(C)(C)C)c2Cl)nc2cc(C(=O)Nc3cccc(F)c3)c(OCC(F)F)cc21; 1
Cn1c(Nc2c(Cl)ccc(CNC(=O)C(C)(C)C)c2Cl)nc2cc(C(=O)Nc3ccncc3Cl)c(OCC(F)F)cc21; 6
Cn1c(Nc2c(Cl)ccc(CNC(=O)c3ccc(Cl)s3)c2Cl)nc2cc(C(=O)NCC(F)(F)F)c(OCC(F)F)cc21; 9
Cc1nc(C)c(C(=O)NCc2ccc(Cl)c(Nc3nc4cc(C(=O)Nc5ccc(F)c(Cl)c5)c(OCC(F)F)cc4n3C)c2Cl)s1; 49

[1] Cn1c(Nc2c(Cl)ccc(CNC(=O)C(C)(C)C)c2Cl)nc2cc(C(=O)NC[C@@H]3CCCO3)c(OCC(F)F)cc21
[2] Cn1c(Nc2c(Cl)ccc(CNC(=O)C(C)(F)F)c2Cl)nc2cc(C(=O)NCC(F)(F)F)c(OCC(F)F)cc21
*Q* Smaller IC50 value? Options are 1 and 2 Your answer should be the label of the entry you select.
*A* 1
(1: 9 nM, 2: 13 nM)
